System: 349418-098-R tumor spheroid viability;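 further: spheroids exposed to compound for 7 days before measurement; percent of vehicle control viability with 100% = DMSO-treated spheroids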
Assay: Anticancer human tumor 349418-098-R patient-derived lung adenocarcinoma cell line growth inhibition
Settings: second compound 0.0949 µM; first compound 0.1 µM; stronger effect = lower value; spheroids with HUVEC and MSC
measurement.name: viability, T/C (%)
Write down the numeric answer in % and omit the unit.

**Q:** Look up viability, T/C of [2H]c1nc(C)nc([2H])c1-c1cc(NC[C@@H](C)c2cccc3c(C(=O)NC)ccnc23)ncn1 + CC[C@@]1(O)C(=O)OCc2c1cc1n(c2=O)Cc2cc3c(CN(C)C)c(O)ccc3nc2-1 and report it.
**A:** 15.4

**Q:** Look up viability, T/C of Cc1cc(C)c(CNC(=O)c2cc(-c3ccc(CN4CCOCC4)cc3)cc3c2cnn3C2CCCC2)c(=O)[nH]1 + CC[C@@]1(O)C(=O)OCc2c1cc1n(c2=O)Cc2cc3c(CN(C)C)c(O)ccc3nc2-1 and report it.
**A:** 14.8

**Q:** Look up viability, T/C of CC(C)n1c(=O)n(C)c2cnc3cc(F)c(-c4ccc(OCCCN5CCCCC5)nc4)cc3c21 + CC[C@@]1(O)C(=O)OCc2c1cc1n(c2=O)Cc2cc3c(CN(C)C)c(O)ccc3nc2-1 and report it.
**A:** 9.49

**Q:** Look up viability, T/C of COc1cc(C)[nH]c(=O)c1CN1CCc2c(Cl)cc(C(OC)C3COC3)c(Cl)c2C1=O (stereo unspecified) + CC[C@@]1(O)C(=O)OCc2c1cc1n(c2=O)Cc2cc3c(CN(C)C)c(O)ccc3nc2-1 and report it.
**A:** 17.1

**Q:** Look up viability, T/C of COc1ccc([C@@H](O)c2cc(-c3ncnc4cc(N5CCOCC5)ccc34)c(F)cc2Cl)nn1 + CC[C@@]1(O)C(=O)OCc2c1cc1n(c2=O)Cc2cc3c(CN(C)C)c(O)ccc3nc2-1 and report it.
**A:** 11.6

**Q:** Look up viability, T/C of CC1COCCN1c1cc(-c2ccnn2C)c2ccnc(-c3ccn[nH]3)c2n1 (stereo unspecified) + CC[C@@]1(O)C(=O)OCc2c1cc1n(c2=O)Cc2cc3c(CN(C)C)c(O)ccc3nc2-1 and report it.
**A:** 6.47
